assay_comment: TIMS collisional cross section (CCS, N2) of the lipid ion; higher = larger ion cross section
stated_conditions: sample type: HeLa; ionization mode: positive; one isomer drawn
observation_type: TIMS collisional cross section (Å²)
Give a bare numeral; the unit Å² is implied.

Answered cases to consult:
Inquiry: Quote TIMS collisional cross section reported for CCCCCCCCCCCCCCCCCCCC(=O)OC[C@@H](COC(=O)CCCCCCCCCCCCCCC)OC(=O)CCCCCCCCCCCCCCCCC [TG 16:0_18:0_20:0] (ion (formula + adduct): [C57H110O6+NH4] 1+) please.
Reply text: 332.05

Inquiry: Quote TIMS collisional cross section reported for CCCCCCCCCCCCCCCCCCCCCC(=O)O[C@@H](CO)COC(=O)CCCCCCCCCCCCCCC [DG 16:0_22:0_0:0] (ion (formula + adduct): [C41H80O5+NH4] 1+) please.
Reply text: 279.1

Inquiry: Quote TIMS collisional cross section reported for CCCCCCC/C=C\CCCCCCCC(=O)OC[C@H](COC(=O)CCCCCCC/C=C\CCCCCCCC)OC(=O)CCCCCCC/C=C\CCCCCCCC [TG 17:1_18:1_18:1] (ion (formula + adduct): [C56H102O6+NH4] 1+) please.
Reply text: 323.2

Inquiry: Quote TIMS collisional cross section reported for CCCCCC/C=C\CCCCCCCC(=O)OC[C@@H](COC(=O)CCCCCCCCCCCCC)OC(=O)CCCCCCCCCCCCCC [TG 14:0_15:0_16:1] (ion (formula + adduct): [C48H90O6+NH4] 1+) please.
Reply text: 302.8

Further cases:
Inquiry: Quote TIMS collisional cross section reported for CCCCC/C=C\C/C=C\C/C=C\C/C=C\CCCC(=O)OC[C@H](COP(=O)(O)OCCN)OC(=O)CCCCCCC/C=C\CCCCCC [PE 20:4_16:1] (ion (formula + adduct): [C41H72NO8P+H] 1+) please.
Reply text: 272.4

* * *

Below, each entry is listed with its recorded TIMS collisional cross section.
assay_comment: TIMS collisional cross section (CCS, N2) of the lipid ion; higher = larger ion cross section
stated_conditions: sample type: Liver; ionization mode: positive; one isomer drawn
Give a bare numeral; the unit Å² is implied.

Inquiry: Quote TIMS collisional cross section reported for CCCCC/C=C\C/C=C\CCCCCCCC(=O)OC[C@@H](COC(=O)CCCCCCCCCCCCC)OC(=O)CCCCCCC/C=C\CCCCCC [TG 14:0_16:1_18:2] (ion (formula + adduct): [C51H92O6+NH4] 1+) please.
Reply text: 306.1

Inquiry: Quote TIMS collisional cross section reported for CCCCCCCCCCCCCCCCCCCCCC(=O)OC[C@@H](COC(=O)CCCCCCCCCCCCCCC)OC(=O)CCCCCCCCCCCCCCCCC [TG 16:0_18:0_22:0] (ion (formula + adduct): [C59H114O6+NH4] 1+) please.
Reply text: 338.3

Inquiry: Quote TIMS collisional cross section reported for CCCCCCCCCCCCC/C=C/[C@@H](O)[C@H](CO[C@@H]1O[C@H](CO)[C@@H](O)C(O)C1O)NC(=O)CCCCCCCCCCCCCCCCCCCCCCC (some centres undefined) [GlcCer d18:1_24:0@] (ion (formula + adduct): [C48H93NO8+H] 1+) please.
Reply text: 304.1

Next compound, please.
Inquiry: Quote TIMS collisional cross section reported for CCCCC/C=C\C=C/CCCCCCCCC(=O)O[C@H](COC(=O)CCCCCCCCCCCCCCCCC)COP(=O)([O-])OCC[N+](C)(C)C [PC 18:0_18:2] (ion (formula + adduct): [C44H84NO8P+H] 1+) please.
Reply text: 292.8

* * *

assay_comment: TIMS collisional cross section (CCS, N2) of the lipid ion; higher = larger ion cross section
stated_conditions: sample type: HeLa; ionization mode: positive; one isomer drawn
observation_type: TIMS collisional cross section (Å²)
Give a bare numeral; the unit Å² is implied.

Inquiry: Quote TIMS collisional cross section reported for CCCCCCCC/C=C\CCCCCCCC(=O)OC[C@H](COP(=O)(O)OCCN)OC(=O)CCCCCCCCCCCCCCCC [PE 18:1_17:0@] (ion (formula + adduct): [C40H78NO8P+H] 1+) please.
Reply text: 279

Further cases:
Inquiry: Quote TIMS collisional cross section reported for CCCCCC/C=C\CCCCCCCC(=O)OC[C@H](COP(=O)(O)OCCN)OC(=O)CCCCCCCCCCCCCCC [PE 16:1_16:0] (ion (formula + adduct): [C37H72NO8P+H] 1+) please.
Reply text: 268.7

Inquiry: Quote TIMS collisional cross section reported for CCCCCC/C=C\CCCCCCCC(=O)O[C@@H](COC(=O)CCCCCCC/C=C\CCCCCCCC)COC(=O)CCCCCCCCCCCCCCC [TG 16:0_16:1_18:1] (ion (formula + adduct): [C53H98O6+NH4] 1+) please.
Reply text: 315.9

Inquiry: Quote TIMS collisional cross section reported for CC/C=C\C/C=C\C/C=C\C/C=C\C/C=C\C/C=C\CCC(=O)OC[C@@H](COC(=O)CCC/C=C\C/C=C\C/C=C\C/C=C\CCCCC)OC(=O)CCC/C=C\C/C=C\C/C=C\C/C=C\CCCCC [TG 20:4_20:4_22:6] (ion (formula + adduct): [C65H98O6+NH4] 1+) please.
Reply text: 333.7

* * *

assay_comment: TIMS collisional cross section (CCS, N2) of the lipid ion; higher = larger ion cross section
stated_conditions: sample type: HeLa; ionization mode: positive; one isomer drawn
Threshold check on TIMS collisional cross section: at or above 300 Å² gives TRUE, strictly below gives FALSE.

Take a look at these entries with their results.
Inquiry: For this compound, is measured TIMS collisional cross section 300 Å² or higher? CCCCCCCC/C=C/CCCCCCCC(=O)OC[C@H](COP(=O)(O)OCCN)OC(=O)CCCCCCC/C=C/CCCCCCCC [PE 18:1_18:1] (ion (formula + adduct): [C41H78NO8P+H] 1+)
Reply text: FALSE

Inquiry: For this compound, is measured TIMS collisional cross section 300 Å² or higher? CC/C=C\C/C=C\C/C=C\C/C=C\C/C=C\CCCCCC(=O)OC[C@@H](COC(=O)CCCCCCCCCCCCCCCCC)OC(=O)CCC/C=C\C/C=C\C/C=C\C/C=C\CCCCC [TG 18:0_20:4_22:5] (ion (formula + adduct): [C63H104O6+NH4] 1+)
Reply text: TRUE

Inquiry: For this compound, is measured TIMS collisional cross section 300 Å² or higher? CCCCCC/C=C\CCCCCCCC(=O)OC[C@H](COP(=O)(O)OCCN)OC(=O)CCCCCCC/C=C\CCCCCCC [PE 16:1_17:1@] (ion (formula + adduct): [C38H72NO8P+H] 1+)
Reply text: FALSE

Inquiry: For this compound, is measured TIMS collisional cross section 300 Å² or higher? CCCCC/C=C\C/C=C\C/C=C\CCCCCCC(=O)O[C@H](CO/C=C\CCCCCCCCCCCCCCCC)COP(=O)(O)OCCN [PE P- 18:0@_20:3] (ion (formula + adduct): [C43H80NO7P+H] 1+)
Reply text: FALSE

Inquiry: For this compound, is measured TIMS collisional cross section 300 Å² or higher? CCCC/C=C\CCCCCCCC(=O)OC[C@H](COP(=O)([O-])OCC[N+](C)(C)C)OC(=O)CCCCCCCCCCCCCCCCC [PC 14:1@_18:0] (ion (formula + adduct): [C40H78NO8P+H] 1+)
Reply text: FALSE

Further cases:
Inquiry: For this compound, is measured TIMS collisional cross section 300 Å² or higher? CCCCC/C=C\C/C=C\C/C=C\C/C=C\CCCC(=O)OC[C@@H](COC(=O)CCCCCCCCCCCCC)OC(=O)CCCCCCC/C=C\CCCCCC [TG 14:0_16:1_20:4] (ion (formula + adduct): [C53H92O6+NH4] 1+)
Reply text: TRUE

Inquiry: For this compound, is measured TIMS collisional cross section 300 Å² or higher? CCCCC/C=C\C/C=C\CCCCCCCC(=O)OC[C@@H](COC(=O)CCCCCCC/C=C\CCCCCC)OC(=O)CCCCCCC/C=C\CCCCCCCC [TG 16:1_18:1_18:2] (ion (formula + adduct): [C55H98O6+NH4] 1+)
Reply text: TRUE

Inquiry: For this compound, is measured TIMS collisional cross section 300 Å² or higher? CCCCCCC/C=C\CCCCCCCC(=O)O[C@@H](COC(=O)CCCCCCC/C=C\CCCCCCCC)COC(=O)CCCCCCCCCCCCCCC [TG 16:0_17:1_18:1] (ion (formula + adduct): [C54H100O6+NH4] 1+)
Reply text: TRUE

Inquiry: For this compound, is measured TIMS collisional cross section 300 Å² or higher? CCCCCCCC/C=C\C/C=C\CCCCC(=O)O[C@H](COC(=O)CCCCCCC/C=C\CCCCCCCC)COP(=O)([O-])OCC[N+](C)(C)C [PC 18:1_18:2@] (ion (formula + adduct): [C44H82NO8P+H] 1+)
Reply text: FALSE
